Target: T1, HCoV-OC43 nucleocapsid (N) protein, 2X-StrepTag tagged (HCoV-OC43, UniProt P33469 1-448)
T1 sequence: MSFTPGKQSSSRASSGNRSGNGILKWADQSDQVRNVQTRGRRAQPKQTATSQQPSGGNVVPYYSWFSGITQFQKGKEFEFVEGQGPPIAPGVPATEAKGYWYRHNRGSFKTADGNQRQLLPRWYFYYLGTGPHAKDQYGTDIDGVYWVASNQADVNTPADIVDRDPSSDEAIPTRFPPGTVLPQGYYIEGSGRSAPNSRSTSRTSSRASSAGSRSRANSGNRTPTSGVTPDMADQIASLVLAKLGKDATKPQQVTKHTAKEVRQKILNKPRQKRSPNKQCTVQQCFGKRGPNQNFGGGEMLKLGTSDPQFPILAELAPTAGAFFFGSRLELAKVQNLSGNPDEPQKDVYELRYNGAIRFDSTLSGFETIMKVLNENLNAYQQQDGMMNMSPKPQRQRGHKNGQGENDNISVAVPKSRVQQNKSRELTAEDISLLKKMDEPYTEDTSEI
Assay: BLI

- Binder: "CCL28 (ligand) SEAILPIASSCCTEVSHHISRRLLERVNMCRIQRADGDCDLAAVILHVKRRRICVSPHNHTVKQWMKVQAAKKNGKGNVCHRKKHHGKRNSNRAHQGKHETYGHKTPY"
  kon, M⁻¹ s⁻¹: 60000
- Binder: "CXCL14 (ligand) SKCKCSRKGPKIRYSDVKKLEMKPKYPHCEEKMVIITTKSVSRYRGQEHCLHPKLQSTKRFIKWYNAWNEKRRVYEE"
  kon, M⁻¹ s⁻¹: 12000
- Binder: "CCL21 (ligand) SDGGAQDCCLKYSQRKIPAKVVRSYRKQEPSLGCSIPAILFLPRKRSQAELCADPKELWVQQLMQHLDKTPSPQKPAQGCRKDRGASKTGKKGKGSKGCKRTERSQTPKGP"
  kon, M⁻¹ s⁻¹: 67000
- Binder: "CXCL13 (ligand) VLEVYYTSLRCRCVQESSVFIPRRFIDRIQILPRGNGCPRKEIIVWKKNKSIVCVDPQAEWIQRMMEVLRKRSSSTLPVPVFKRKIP"
  kon, M⁻¹ s⁻¹: 44000
